Reference for the values: ChEMBL document CHEMBL3885861

For each record, write down the corresponding MCHC.
Species on record: Rattus norvegicus
test-method-notes: Open TG-GATES - Regimen: Single
Type: toxicity, organism-based, Sprague-Dawley
Set-up: regimen Single, gender Male, age 6 weeks
settings: in vivo, po, 0 mg/kg, 24 h, tissue Blood, route gavage, dose level Control
Answers are plain numbers, in %.

[[record]]
chemical_smiles = "Nc1nc(N)c2nc(-c3ccccc3)c(N)nc2n1"
assay_value = 33.4

[[record]]
chemical_smiles = "CCC(C)(C)C(=O)O[C@H]1C[C@@H](C)C=C2C=C[C@H](C)[C@H](CC[C@@H]3C[C@@H](O)CC(=O)O3)[C@H]21"
assay_value = 32.5


State, in one line, measured MCHC of C[C@](N)(Cc1ccc(O)c(O)c1)C(=O)O 34.1
